- TARGET DESC: hOGA (Homo sapiens)
- Construct: made in house
- Sequence (O60502 1-916): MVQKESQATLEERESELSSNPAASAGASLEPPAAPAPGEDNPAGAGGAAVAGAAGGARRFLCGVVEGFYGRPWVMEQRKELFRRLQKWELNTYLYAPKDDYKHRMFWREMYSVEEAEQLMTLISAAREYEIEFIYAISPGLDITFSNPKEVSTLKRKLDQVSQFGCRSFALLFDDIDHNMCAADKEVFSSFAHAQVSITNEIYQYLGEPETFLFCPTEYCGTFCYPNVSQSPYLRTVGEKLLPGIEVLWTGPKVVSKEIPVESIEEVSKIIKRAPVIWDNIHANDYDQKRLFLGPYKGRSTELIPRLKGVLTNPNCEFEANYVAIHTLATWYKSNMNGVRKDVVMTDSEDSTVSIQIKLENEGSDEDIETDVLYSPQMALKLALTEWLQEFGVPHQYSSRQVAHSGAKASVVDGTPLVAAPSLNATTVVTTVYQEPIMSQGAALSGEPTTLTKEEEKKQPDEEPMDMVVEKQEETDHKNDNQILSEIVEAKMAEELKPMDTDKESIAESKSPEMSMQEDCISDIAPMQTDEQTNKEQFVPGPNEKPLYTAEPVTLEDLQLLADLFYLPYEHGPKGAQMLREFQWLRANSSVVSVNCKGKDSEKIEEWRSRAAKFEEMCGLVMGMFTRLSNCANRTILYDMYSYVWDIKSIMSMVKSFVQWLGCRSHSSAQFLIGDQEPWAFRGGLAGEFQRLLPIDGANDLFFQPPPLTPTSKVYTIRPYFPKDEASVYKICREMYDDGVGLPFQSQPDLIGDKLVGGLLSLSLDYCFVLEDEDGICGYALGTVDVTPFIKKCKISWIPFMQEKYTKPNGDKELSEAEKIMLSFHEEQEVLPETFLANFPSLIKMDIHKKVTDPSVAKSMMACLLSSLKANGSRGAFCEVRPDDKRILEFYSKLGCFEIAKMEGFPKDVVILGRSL
- EXPERIMENT DESCRIPTION: hOGA inhibition, fluorogenic 4MU-NAG substrate
- Format: biochemical
- PARTICULARS: 2 nM hOGA, 80 μM 4MU-GlcNAc (Km), 60 min, pH 5.7; read-out: hOGA IC50
Could you please report measured pIC50 for the items listed next?
Hey, just a heads up that pIC50 is the negative log base 10 of the concentration in molar.

GET /values?readout=pIC50&system=hOGA (Homo sapiens)&item= CC(=O)Nc1nnc(S(N)(=O)=O)s1 [Acetazolamide, acetazolamide] 4.33

Next record, please: CNc1ncnc2nc[nH]c12 5.40

Same for O=C1CC2(CCCC2)CC(=O)N1CCCCN1CCN(c2ncccn2)CC1 4.60
